molecular target: humanen Vitronectinrezeptor (VnR) αvβ3 (Homo sapiens, UniProt P05106+P06756); assay: Inhibition of binding of Kistrin to human vitronectin receptor (αvβ3 ELISA test, K/VnR); settings: 10 µM test compound, read-out: K/VnR Inhibierung bei 10 µM (in %)
Sequence (P06756 31-889 limits assumed): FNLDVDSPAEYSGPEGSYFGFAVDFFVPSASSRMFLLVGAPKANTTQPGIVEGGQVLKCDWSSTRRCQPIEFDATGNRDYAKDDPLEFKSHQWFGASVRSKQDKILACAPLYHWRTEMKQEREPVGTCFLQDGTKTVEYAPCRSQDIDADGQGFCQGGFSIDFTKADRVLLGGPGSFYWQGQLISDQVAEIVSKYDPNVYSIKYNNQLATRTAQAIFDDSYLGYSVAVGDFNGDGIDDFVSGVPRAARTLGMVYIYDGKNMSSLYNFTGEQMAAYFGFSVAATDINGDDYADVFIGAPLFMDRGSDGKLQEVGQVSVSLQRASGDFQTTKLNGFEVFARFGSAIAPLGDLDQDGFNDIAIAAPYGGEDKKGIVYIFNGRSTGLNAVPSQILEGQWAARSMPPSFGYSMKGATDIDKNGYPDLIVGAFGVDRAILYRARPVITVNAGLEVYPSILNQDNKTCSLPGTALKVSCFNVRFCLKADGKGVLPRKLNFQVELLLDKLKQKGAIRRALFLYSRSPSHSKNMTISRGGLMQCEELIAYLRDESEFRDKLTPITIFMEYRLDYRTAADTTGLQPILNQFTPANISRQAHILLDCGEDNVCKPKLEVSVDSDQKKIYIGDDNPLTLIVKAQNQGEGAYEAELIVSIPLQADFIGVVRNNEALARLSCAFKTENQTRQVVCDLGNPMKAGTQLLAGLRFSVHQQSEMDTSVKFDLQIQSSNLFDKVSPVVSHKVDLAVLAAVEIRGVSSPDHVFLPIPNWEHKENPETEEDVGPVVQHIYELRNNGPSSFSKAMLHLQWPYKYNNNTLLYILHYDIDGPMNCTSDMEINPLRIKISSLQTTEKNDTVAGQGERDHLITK
Sequence (P06756 891-1048 partner limits assumed): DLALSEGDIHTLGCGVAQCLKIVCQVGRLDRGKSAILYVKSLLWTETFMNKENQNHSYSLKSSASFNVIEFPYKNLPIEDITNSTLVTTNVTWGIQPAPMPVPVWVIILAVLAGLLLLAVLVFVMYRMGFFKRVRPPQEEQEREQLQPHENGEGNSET
Sequence (P05106 27-788): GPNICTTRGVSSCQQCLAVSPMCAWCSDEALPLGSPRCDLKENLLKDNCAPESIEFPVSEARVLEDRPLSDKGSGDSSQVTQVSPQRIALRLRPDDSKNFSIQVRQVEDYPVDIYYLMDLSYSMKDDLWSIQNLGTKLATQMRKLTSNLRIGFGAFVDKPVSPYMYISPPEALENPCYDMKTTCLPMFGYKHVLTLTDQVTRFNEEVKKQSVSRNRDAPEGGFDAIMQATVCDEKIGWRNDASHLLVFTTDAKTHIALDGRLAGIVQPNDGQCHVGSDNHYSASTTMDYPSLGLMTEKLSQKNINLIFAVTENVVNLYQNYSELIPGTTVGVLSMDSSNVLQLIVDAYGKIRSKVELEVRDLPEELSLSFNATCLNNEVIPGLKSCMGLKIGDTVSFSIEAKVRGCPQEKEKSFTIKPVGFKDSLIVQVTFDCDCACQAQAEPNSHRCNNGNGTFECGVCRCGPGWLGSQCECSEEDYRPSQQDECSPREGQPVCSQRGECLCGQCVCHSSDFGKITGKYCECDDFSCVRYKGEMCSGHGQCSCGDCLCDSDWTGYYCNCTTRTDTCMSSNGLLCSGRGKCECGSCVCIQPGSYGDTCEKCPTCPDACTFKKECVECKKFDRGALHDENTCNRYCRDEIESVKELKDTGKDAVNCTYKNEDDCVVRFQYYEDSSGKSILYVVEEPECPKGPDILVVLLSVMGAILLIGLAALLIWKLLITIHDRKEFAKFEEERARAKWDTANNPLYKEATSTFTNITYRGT
quantityKind: inhibition at 10 µM
Please state the value followed by its unit.

Previously resolved entries follow.
{"compound": "N=C(N)NCCCNc1ncnc2c1ncn2C[C@H](NC(=O)OCc1ccccc1)C(=O)O [Beispiel 3]", "inhibition at 10 µM": "77%"}
{"compound": "N=C(N)NCCCCNc1ncnc2c1ncn2C[C@H](NC(=O)OCc1ccccc1)C(=O)O [Beispiel 2]", "inhibition at 10 µM": "80%"}
{"compound": "N=C(N)NCCCn1cnc2c(NCC[C@H](NC(=O)OCc3ccccc3)C(=O)O)ncnc21 [Beispiel 12]", "inhibition at 10 µM": "86%"}

# batch: return inhibition at 10 µM for each of the 2 compounds below
1. N=C(N)NCCCCn1cnc2c(NC[C@H](NC(=O)OCc3ccccc3)C(=O)O)ncnc21 [Beispiel 17]
2. O=C(N[C@@H](Cn1cnc2c(NCCCCNc3nc4ccccc4[nH]3)ncnc21)C(=O)O)OCc1ccccc1 [Beispiel 23]

["92%", "93%"]

# batch: return inhibition at 10 µM for each of the 7 compounds below
1. O=C(N[C@@H](Cn1cnc2c(NCCCCNC3=NCCN3)ncnc21)C(=O)O)OCc1ccccc1 [Beispiel 4]
2. N=C(N)NCC1CCN(c2ncnc3c2ncn3C[C@H](NC(=O)OCc2ccccc2)C(=O)O)CC1 [Beispiel 26]
3. O=C(N[C@@H](CNc1ncnc2c1ncn2CCCCNC1=NCCN1)C(=O)O)OCc1ccccc1 [Beispiel 18]
4. N=C(N)NCCCCCNc1ncnc2c1ncn2C[C@H](NC(=O)OCc1ccccc1)C(=O)O [Beispiel 1]
5. O=C(N[C@H](Cn1cnc2c(N3CCC(CNC4=NCCN4)CC3)ncnc21)C(=O)O)OCc1ccccc1 [Beispiel 25]
6. O=C(N[C@@H](Cn1cnc2c(N3CCC(C(=O)NC4=NCCCN4)CC3)ncnc21)C(=O)O)OCc1ccccc1 [Beispiel 19]
7. O=C(N[C@@H](CCNc1ncnc2c1ncn2CCCNC1=NCCN1)C(=O)O)OCc1ccccc1 [Beispiel 13]

1: 93%; 2: 91%; 3: 95%; 4: 75%; 5: 89%; 6: 97%; 7: 92%

# batch: return inhibition at 10 µM for each of the 5 compounds below
1. NCCCCCn1cnc2c(NC[C@H](NC(=O)OCc3ccccc3)C(=O)O)ncnc21 [Beispiel 14c]
2. NCCCn1cnc2c(NC[C@H](NC(=O)OCc3ccccc3)C(=O)O)ncnc21 [Beispiel 16b]
3. O=C(N[C@@H](Cn1cnc2c(N3CCC(CNC4=NCCN4)CC3)ncnc21)C(=O)O)OCc1ccccc1 [Beispiel 24]
4. O=C(N[C@@H](CNc1ncnc2c1ncn2CCCCCNC1=NCCN1)C(=O)O)OCc1ccccc1 [Beispiel 15]
5. N=C(N)NCCCCCn1cnc2c(NC[C@H](NC(=O)OCc3ccccc3)C(=O)O)ncnc21 [Beispiel 14]

22%
29%
95%
92%
84%

Query inhibition at 10 µM on humanen Vitronectinrezeptor (VnR) αvβ3 (Homo sapiens, UniProt P05106+P06756) for N=C(N)NCCCn1cnc2c(NC[C@H](NC(=O)OCc3ccccc3)C(=O)O)ncnc21 [Beispiel 16]
85%

Each recorded value in this set is attributed to patent EP0853084B1.
